assay: S6 kinase pathway phospho-S6 level changes – cell-based, A549, cytoblot, luminescence, serum-stimulated, primary screen (AID 1158); conditions: 5 h, higher = more signal;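 further: serum-stimulated A549 lung adenocarcinoma cells; signal is phosphorylated S6 detected by cytoblot immunostaining with HRP secondary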
Endpoint Label: z-score
Respond with the number and no other words.

In the examples that follow, each entry is paired with its recorded z-score.
# Compound, z-score
rows = [
    ("O=C(NCC(O)CO)C1N=C(c2ccc(OCCCO)cc2)N(c2ccccc2)O1 (configuration not stated)", 0.0265),
    ("CC1CC/C=C\\[C@H]2OC34C=CCN(Cn5nnc6ccccc65)C(=O)[C@H]3N(CCCCCCO)C(=O)[C@@H]4C2C(=O)O1 (some centres not stated)", 1.2),
    ("CCCc1cc2c(n1CCc1ccc(Cl)cc1)C(C)C1CN(C(=O)c3ccccc3)C(C)(C(=O)OC)C21 (configuration not stated)", 0.0928),
    ("COc1cc(C(O)C2C=CC3C(=O)N(c4ccccc4)C(=O)C3N2Nc2ccccc2)cc(OC)c1OC (configuration not stated)", -0.817),
]

Read the next record carefully.
Given the entry COC(=O)C(CC#Cc1ccc2c(c1)[C@]1(C(=O)N2)[C@H](C(=O)N2CCc3cc(OC)c(OC)cc3C2)[C@H]2C(=O)O[C@H](c3ccccc3)[C@H](c3ccccc3)N2[C@@H]1c1ccccc1OCCO)C(=O)OC , report its measured z-score.
-0.416

----------
assay: JC-1 mitochondrial signal, unstimulated adipocytes – cell-based, JC-1 fluorescence, 3T3-L1 adipocytes, 24 h, 100 nL compound, profiling panel (AID 1168); details: JC-1 mitochondrial fluorescence, higher = more signal, called active from +8 up or from −8 down; further: test concentration not given here
Recorded z-score by entry
Respond with the number and no other words.

# Compound, z-score
records = [
    ("O=C1O[C@H](c2ccccc2)[C@H](c2ccccc2)N2[C@H]1[C@@H](C(=O)O)[C@]1(C(=O)Nc3ccc(C#CCCO)cc31)[C@H]2c1ccc(OCCO)cc1", -0.138),
    ("NC(=O)NCC#Cc1ccc2c(c1)[C@]1(C(=O)N2)[C@H](c2ccc(OCCO)cc2)N2[C@H](c3ccccc3)[C@H](c3ccccc3)OC(=O)[C@H]2[C@@H]1C(=O)O", -0.469),
    ("C=C(CCCC)/C(=C/C[C@H](OC(=O)c1ccncc1)c1ccc(OCCO)cc1)c1cnc2ccccc2c1", -0.689),
    ("CCCC=C(CCC)[C@@H](NC(=O)OCC(C)C)c1ccc(C(=O)OC)cc1", -1.53),
    ("CN(C)CCCNC(=O)[C@@]1(C)c2ccccc2C(=O)N(Cc2ccc(OC(F)(F)F)cc2)[C@H]1c1ccc(CO)cc1", -0.422),
]

Given the entry CC1CC/C=C\[C@H]2OC34C=CCN(c5ccc6ccccc6c5)C(=O)[C@H]3N(C(C)CO)C(=O)[C@@H]4C2C(=O)O1 (some centres not stated) , report its measured z-score.
0.0486

How about COC(=O)[C@@]1(Cc2ccccc2)[C@H]2c3cc(C(=O)N4CCCC4)n(Cc4ccc(OC)c(OC)c4)c3C[C@H]2CN1C(=O)c1ccccc1 ?
1.09

----------
test: growth modulation of vineyard yeast isolate – strain RM11-1a, OD600, basal, 24 h, primary screen (AID 1177);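 further: cultures grown under basal conditions with no added stressor; test concentration not given here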; settings: S. cerevisiae RM11-1a growth, OD600, 24 h; higher = more signal, called active from +8 up or from −8 down
Endpoint Label: z-score
Respond with the number and no other words.

# Compound, z-score
rows = [
    ("COC(=O)[C@H](Cc1ccc(O)cc1)N[C@@H](/C=C/C1CC1)[C@H](O)Cc1ccccc1", 0.0871),
]

Given the entry COC(=O)[C@@]1(Cc2ccc(OC)cc2)[C@H]2c3cc(C(=O)N4CCCC4)n(CCn4cc([N+](=O)[O-])nc4C)c3C[C@H]2CN1C(=O)c1ccccc1 , report its measured z-score.
-0.123

How about COCCCN1C(=O)[C@@]2(c3ccc([N+](=O)[O-])cc3)CC(=O)N(CC34CC5CC(CC(C5)C3)C4)[C@@H]2c2ccc(CO)cc21 ?
0.0202

How about C=C(C)[C@@H]1CC=C(C(O)C2C=CC3C(=O)N(C)C(=O)C3N2Nc2ccc([N+](=O)[O-])cc2[N+](=O)[O-])CC1 (some centres undefined) ?
0.442

How about COc1ccc([Si](C)(C)[C@H]2[C@H](CCO)O[C@@]3(C(=O)N(Cc4cccc(N(C=O)c5ccccc5)c4)c4ccccc43)[C@@H]2C)cc1 ?
4.32

How about C[C@@H]1ON(c2ccccc2)[C@H](c2ccccc2)[C@H]1C(=O)O ?
0.058

How about CCCCC(O)C1C=CC2C(=O)N(c3ccccc3)C(=O)C2N1Nc1ccccc1 (centres undefined) ?
0.632

How about C=C(COC)C(=O)CC[C@@H](OC(C)=O)c1ccccc1OCCO ?
-1.56

How about O=C(NCCN1CCOCC1)[C@@H]1c2ccccc2C(=O)N(Cc2ccc(OC(F)(F)F)cc2)[C@H]1c1ccc(CO)cc1 ?
-0.449

How about Cc1ccccc1C(O)C1C=CC2C(=O)N(c3ccccc3)C(=O)C2N1Nc1ccccc1 (centres undefined) ?
0.0725

How about COc1ccc(C(=O)Nc2cccc(CN3C(=O)[C@@]4(O[C@@H](CC(=O)N5CCC[C@H]5CO)[C@H]([Si](C)(C)c5ccc(OC)cc5)[C@H]4C)c4ccccc43)c2)cc1 ?
0.844

How about COc1ccc(C(=O)Nc2ccc3c(c2)[C@@]2(O[C@H](CCO)[C@@H]([Si](C)(C)c4ccc(OC)cc4)[C@@H]2C)C(=O)N3Cc2ccccc2)cc1 ?
2.7

How about C[N+](C)(C)CCCCNC(=O)[C@H]1C[C@H]2C(=O)N[C@@H](Cc3ccccc3)C(=O)N2[C@H]1c1cccc(OCCO)c1 ?
0.103

How about COc1ccc(C(=O)Nc2ccc(CN3C(=O)[C@@]4(O[C@@H](CCn5cc(CCO)nn5)[C@H]([Si](C)(C)c5ccc(OC)cc5)[C@H]4C)c4ccccc43)cc2)cc1 ?
2.47

----------
Recorded composite z-score by entry
molecular target: Neurogenic locus notch homolog protein 2 (Homo sapiens) (UniProt Q04721); assay: small molecules binding Notch2 protein – biochemical, small-molecule microarray, 635 nm fluorescence, stem cell growth factors, primary screen (AID 1073); details: higher = more signal
Sequence (Q04721 whole entry, looked up): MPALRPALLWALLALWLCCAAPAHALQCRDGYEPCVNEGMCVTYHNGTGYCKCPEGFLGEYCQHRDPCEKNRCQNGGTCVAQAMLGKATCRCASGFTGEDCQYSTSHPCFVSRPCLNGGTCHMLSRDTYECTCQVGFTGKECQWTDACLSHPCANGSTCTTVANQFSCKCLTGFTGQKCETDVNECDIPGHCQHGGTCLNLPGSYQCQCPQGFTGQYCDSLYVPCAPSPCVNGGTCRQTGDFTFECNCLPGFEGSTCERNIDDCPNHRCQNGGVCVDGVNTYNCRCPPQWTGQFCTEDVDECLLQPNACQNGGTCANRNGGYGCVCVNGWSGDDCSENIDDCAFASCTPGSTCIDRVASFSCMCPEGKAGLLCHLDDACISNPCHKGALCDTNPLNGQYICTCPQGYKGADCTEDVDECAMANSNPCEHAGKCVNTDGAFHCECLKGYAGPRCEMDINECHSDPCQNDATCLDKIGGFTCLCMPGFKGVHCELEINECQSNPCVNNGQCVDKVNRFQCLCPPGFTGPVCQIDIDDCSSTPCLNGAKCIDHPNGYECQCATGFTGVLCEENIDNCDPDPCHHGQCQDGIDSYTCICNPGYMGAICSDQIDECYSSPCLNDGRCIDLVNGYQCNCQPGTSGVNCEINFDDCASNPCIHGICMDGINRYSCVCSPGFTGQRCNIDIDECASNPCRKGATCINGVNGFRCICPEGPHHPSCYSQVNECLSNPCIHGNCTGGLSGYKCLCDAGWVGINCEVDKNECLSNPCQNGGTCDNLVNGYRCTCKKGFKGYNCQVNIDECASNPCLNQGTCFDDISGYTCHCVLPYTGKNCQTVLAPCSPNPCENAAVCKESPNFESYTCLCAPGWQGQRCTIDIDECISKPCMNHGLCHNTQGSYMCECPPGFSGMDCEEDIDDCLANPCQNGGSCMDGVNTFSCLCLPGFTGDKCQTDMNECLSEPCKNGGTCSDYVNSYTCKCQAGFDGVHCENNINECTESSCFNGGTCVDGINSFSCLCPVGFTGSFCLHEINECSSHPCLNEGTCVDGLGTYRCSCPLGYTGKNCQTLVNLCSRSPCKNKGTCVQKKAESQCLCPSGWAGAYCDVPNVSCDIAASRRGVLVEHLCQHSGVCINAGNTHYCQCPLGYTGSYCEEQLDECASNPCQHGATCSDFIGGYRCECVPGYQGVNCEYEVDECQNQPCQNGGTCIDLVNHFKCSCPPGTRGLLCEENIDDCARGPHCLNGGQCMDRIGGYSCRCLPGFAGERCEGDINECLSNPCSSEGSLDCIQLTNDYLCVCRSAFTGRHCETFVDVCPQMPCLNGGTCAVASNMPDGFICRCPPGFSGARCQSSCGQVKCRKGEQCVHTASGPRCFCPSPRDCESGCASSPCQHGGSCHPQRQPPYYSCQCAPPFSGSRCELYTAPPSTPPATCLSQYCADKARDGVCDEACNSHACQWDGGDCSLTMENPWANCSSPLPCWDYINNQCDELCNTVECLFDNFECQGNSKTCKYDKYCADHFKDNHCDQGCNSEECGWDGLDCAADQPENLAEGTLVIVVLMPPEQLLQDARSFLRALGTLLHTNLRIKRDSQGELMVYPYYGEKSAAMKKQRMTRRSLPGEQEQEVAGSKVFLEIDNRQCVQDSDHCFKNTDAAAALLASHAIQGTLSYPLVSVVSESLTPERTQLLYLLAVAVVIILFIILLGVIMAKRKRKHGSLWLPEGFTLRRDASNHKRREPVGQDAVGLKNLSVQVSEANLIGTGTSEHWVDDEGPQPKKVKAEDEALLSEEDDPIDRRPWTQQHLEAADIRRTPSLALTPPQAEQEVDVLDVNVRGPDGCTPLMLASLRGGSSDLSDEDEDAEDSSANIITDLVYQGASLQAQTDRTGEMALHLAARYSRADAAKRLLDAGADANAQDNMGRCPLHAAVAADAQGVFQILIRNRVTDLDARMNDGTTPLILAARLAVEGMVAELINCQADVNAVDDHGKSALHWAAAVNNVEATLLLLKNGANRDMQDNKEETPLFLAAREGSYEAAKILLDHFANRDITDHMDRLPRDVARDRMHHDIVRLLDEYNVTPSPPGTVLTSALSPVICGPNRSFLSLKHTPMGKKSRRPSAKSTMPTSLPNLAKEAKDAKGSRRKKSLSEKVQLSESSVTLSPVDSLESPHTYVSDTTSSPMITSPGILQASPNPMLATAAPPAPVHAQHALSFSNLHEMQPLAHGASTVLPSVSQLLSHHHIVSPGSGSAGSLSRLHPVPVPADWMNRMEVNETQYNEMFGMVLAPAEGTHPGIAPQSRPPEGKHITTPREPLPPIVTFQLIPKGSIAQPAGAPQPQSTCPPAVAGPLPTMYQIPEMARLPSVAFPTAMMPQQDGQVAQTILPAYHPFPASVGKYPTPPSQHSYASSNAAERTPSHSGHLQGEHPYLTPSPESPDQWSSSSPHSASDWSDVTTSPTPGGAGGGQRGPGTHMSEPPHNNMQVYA
Respond with the number and no other words.

In the examples that follow, each entry is paired with its recorded composite z-score.
# Compound, Target Under Test, Endpoint Label, Endpoint Value
data = [
    ("COCCOC(=O)N1C(=O)[C@@]2(c3cc(C#CCC(C(=O)OC)C(=O)OC)ccc31)[C@H](C(=O)Nc1nc3ccccc3s1)[C@H]1C(=O)O[C@H](c3ccccc3)[C@H](c3ccccc3)N1[C@@H]2c1ccc(OCCO)cc1", "Neurogenic locus notch homolog protein 2 (Homo sapiens) (UniProt Q04721)", "composite z-score", 1.22),
    ("CCOC(=O)C1=CC[C@@H](c2ccc(OC)cc2)N(S(=O)(=O)c2ccc(C)cc2)[C@H]1CC", "Neurogenic locus notch homolog protein 2 (Homo sapiens) (UniProt Q04721)", "composite z-score", 1.66),
    ("CC1CC/C=C\\[C@H]2OC34C=CCN(C(C)(C)C)C(=O)[C@H]3N(CCCO)C(=O)[C@@H]4C2C(=O)O1 (stereo not given in full)", "Neurogenic locus notch homolog protein 2 (Homo sapiens) (UniProt Q04721)", "composite z-score", -0.858),
    ("C=CCN1C(=O)[C@@]2(O[C@@H](CCn3cc([C@H](O)c4ccccc4)nn3)[C@H]([Si](C)(C)c3ccc(OC)cc3)[C@H]2C)c2cc(N3C(=O)c4cccc5cccc3c45)ccc21", "Neurogenic locus notch homolog protein 2 (Homo sapiens) (UniProt Q04721)", "composite z-score", -0.902),
]

Read the next record carefully.
Given the entry CC(C)=C1C(=O)C(c2ccccc2)=C2CN3C(=O)N(CCc4ccccc4)C(=O)[C@]3(C)[C@H]21 , report its measured composite z-score.
1.26

----------
assay: S6 kinase pathway phospho-S6 level changes – cell-based, A549, cytoblot, luminescence, serum-stimulated, primary screen (AID 1158); conditions: 5 h, higher = more signal;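 further: serum-stimulated A549 lung adenocarcinoma cells; signal is phosphorylated S6 detected by cytoblot immunostaining with HRP secondary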
So basically every entry gets a class from its z-score, ranges being class 1 (below -0.3), class 2 (-0.3 to below 1), class 3 (1 or more)

Before answering, review these 5 worked examples.
# Compound, Assigned Class
rows = [
    ("[N-]=[N+]=Nc1ccccc1C[C@@]1(C(=O)NCc2ccccc2)N=C(c2ccc(OCCCO)cc2)O[C@@H]1c1ccccc1N=[N+]=[N-]", "class 3"),
    ("C=CC[C@@]12N=C(c3ccc(OCCCO)cc3)O[C@@H]1c1ccccc1N(CCC)C2=O", "class 2"),
    ("COC(=O)[C@@]1(Cc2ccc(F)cc2)[C@H]2c3cc(C(=O)N4CCCC4)n(CCc4ccccn4)c3C[C@H]2CN1C(=O)c1ccccc1", "class 1"),
    ("C#CCN1[C@@H](Cc2ccccc2)C(=O)O[C@H](Cc2ccccc2)[C@@H]1/C=C/C1CC1", "class 1"),
    ("CC1CC/C=C\\[C@H]2OC34C=CCN(Cc5ccccc5)C(=O)[C@H]3N(CCCCCCO)C(=O)[C@@H]4C2C(=O)O1 (some centres not stated)", "class 3"),
]

Sort COC(=O)[C@@]1(Cc2ccc(OC)cc2)[C@H]2c3cc(C(=O)N4CCCC4)n(Cc4ccc(Cl)c(C(F)(F)F)c4)c3C[C@H]2CN1C(=O)c1ccccc1 into one of the categories.
class 3

How about O=C1C[C@]2(c3ccc([N+](=O)[O-])cc3)C(=O)N(C3CC3)c3cc(CO)ccc3[C@H]2N1C1CCCCC1 ?
class 2

How about COC(=O)[C@@]1(Cc2ccc(F)cc2)[C@H]2c3cc(C(=O)N(C)C)n(CCc4ccc(O)c(O)c4)c3C[C@H]2CN1C(=O)c1ccccc1 ?
class 2

How about COc1ccc([Si](C)(C)[C@H]2[C@H](CC(=O)N3Cc4ccccc4C[C@H]3CO)O[C@@]3(C(=O)N(c4ccccc4)c4ccccc43)[C@@H]2C)cc1 ?
class 3

How about O=C(NC1CC1)[C@@H]1c2ccccc2C(=O)N(Cc2ccc(OC(F)(F)F)cc2)[C@H]1c1ccc(CO)cc1 ?
class 2

How about O=C1NC(=O)C2C1C=CC(C(O)c1ccc(B(O)O)cc1)N2Nc1ccc(Cl)cc1Cl (configuration not stated) ?
class 1
